Test system: U2OS
Assay: Multiplex assay against U2OS
Format: toxicity, cell-based
Conditions: human, 48 h, 1 µM, compound concentration 1 uM, replicate 1
Reported Population Tubulin-Different-Phenotype (%) is given for each of the following compounds.

Example entries and their recorded answers appear below.
compound | readout value
Cc1cc(C)cc(-c2cnc3cc(Cl)c(-c4cccc(O)c4)cc3c2OCCCN)c1 | 32%
Cc1nc(-c2ccc(-c3ccc(C(=O)N4CCc5cc6c(cc54)C4(CCN(C)CC4)CO6)cc3)c(C)c2)no1 [SB-224289] | 15%
CC(C)(O)CNc1ncc(-c2ccnc(Nc3ccnc(Cl)c3)n2)c(CC2CC2)n1 | 7%
CNc1nc(NCc2ccc(NS(C)(=O)=O)cc2Cl)cc(-c2ccccn2)n1 | 21%
CN(C)C(=O)/C(C#N)=C/c1ccc(-c2nc3cnc4[nH]ccc4c3n2C2CCCCC2)o1 | 10%

# Population Tubulin-Different-Phenotype (%) lookup, item "COc1cc(-n2cnc3cc(-c4ccc(Cl)cc4)sc3c2=O)ccc1OCCN1CCCC1"
31%
